Entry source: patent US8993779B2

Biological target: recombinant human mGluR2 (Homo sapiens)
Construct: expressed in transfected cells
Sequence (Q14416 19-872): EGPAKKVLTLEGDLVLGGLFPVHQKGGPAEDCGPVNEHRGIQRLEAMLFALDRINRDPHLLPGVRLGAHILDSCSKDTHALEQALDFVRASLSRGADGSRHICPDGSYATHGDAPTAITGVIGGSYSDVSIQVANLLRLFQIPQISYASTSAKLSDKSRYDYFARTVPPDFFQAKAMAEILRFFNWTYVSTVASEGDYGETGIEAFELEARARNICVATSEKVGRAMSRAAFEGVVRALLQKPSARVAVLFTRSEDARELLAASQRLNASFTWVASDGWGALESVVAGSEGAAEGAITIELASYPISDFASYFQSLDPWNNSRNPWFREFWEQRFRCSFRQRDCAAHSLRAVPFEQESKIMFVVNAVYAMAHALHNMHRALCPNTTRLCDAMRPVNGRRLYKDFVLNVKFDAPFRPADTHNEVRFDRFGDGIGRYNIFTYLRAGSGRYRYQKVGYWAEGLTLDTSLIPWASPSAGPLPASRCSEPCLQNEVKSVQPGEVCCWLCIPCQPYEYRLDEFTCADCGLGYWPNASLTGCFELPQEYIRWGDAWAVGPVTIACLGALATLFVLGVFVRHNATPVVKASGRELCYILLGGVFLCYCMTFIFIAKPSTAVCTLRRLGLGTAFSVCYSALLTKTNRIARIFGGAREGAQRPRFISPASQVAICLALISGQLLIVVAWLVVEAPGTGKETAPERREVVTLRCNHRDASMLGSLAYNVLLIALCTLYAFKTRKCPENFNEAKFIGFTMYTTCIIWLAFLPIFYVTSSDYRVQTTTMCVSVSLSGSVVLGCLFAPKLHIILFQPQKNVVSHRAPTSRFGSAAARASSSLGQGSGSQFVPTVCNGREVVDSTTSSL
Test: FLIPR Ca2+ mobilization assay, potentiation of mGluR2 receptor
Format: cell-based
Details: CHO dhfr- cells expressing human mGluR2 and Gα16; potentiation after EC20 glutamate (900 nM); read-out: FLIPR EC50
reported-metric: EC50 (nM)

Cn1c(=O)n(CC(C)(C)C)c2ccc(-c3ccc4c(c3)CN(C(=O)OC(C)(C)C)CC4)cc21 = 182
Cn1c(=O)n(CC(C)(C)C)c2ccc(-c3cccc(C(C)(O)c4ccccc4)n3)cc21 (centres unmarked) = 225
CN1CCCC(Oc2cccc(-c3ccc4c(c3)n(C)c(=O)n4CC(C)(C)C)n2)C1 (centres unmarked) = 3350
COc1ncc(-c2ccc3c(c2)n(C)c(=O)n3CC(C)(C)C)c(OC)n1 = 2660
Cn1c(=O)n(CC(C)(C)C)c2ccc(-c3cncc(Oc4ccc(C#N)nc4)n3)cc21 = 364

1 = Cn1c(=O)n(CC(C)(C)C)c2ccc(-c3cccc(Oc4ccccc4)c3)cc21
2 = Cc1ccc(-c2ccc3c(c2)n(C)c(=O)n3CC(C)(C)C)c(C#N)c1
I need your help: which of the pair 1 , 2 has higher EC50? // caller expects the label of the chosen entry 1
